Tested on: OVCAR-3 ovarian
EXPERIMENT_DESCRIPTION: NCI tumour cell line growth inhibition, 48 h; in the data active = GI50 below about 0.43 µM; inactive = the rest
Can you answer with just one of these options? label 1 = active, label 0 = inactive

The following molecules have reported results that may help.
molecule=COc1ccc2c(c1)cn1c3ccc(OC)cc3[nH]c(=O)c21 study_target="OVCAR-3 ovarian" assigned_label="label 1"
molecule=CC/C(=C(/c1ccc(Cl)cc1)c1ccc(OCCCN(C)C)cc1)c1ccc(OC)cc1 study_target="OVCAR-3 ovarian" assigned_label="label 0"
molecule="OC(c1cc2c(Cl)cc(Cl)cc2c2cc(C(F)(F)F)ccc12)C1CCCCN1 (stereo not given)" study_target="OVCAR-3 ovarian" assigned_label="label 0"
molecule=O=[N+]([O-])c1ccc(N/N=C\c2ccc(O)cc2O)nc1 study_target="OVCAR-3 ovarian" assigned_label="label 1"
molecule=Nc1ncnc2c1c(-c1ccc(Oc3ccccc3)cc1)nn2C[C@H]1SSC[C@H]1O study_target="OVCAR-3 ovarian" assigned_label="label 1"
molecule="COc1ccc(/C=N/C2=C(C#N)C(c3ccccc3)c3ccc4ccccc4c3O2)cc1 (stereo not given)" study_target="OVCAR-3 ovarian" assigned_label="label 1"
molecule=COc1nc(C(Cl)(Cl)Cl)c(Cl)c(OC)c1Cl study_target="OVCAR-3 ovarian" assigned_label="label 0"
molecule=C=CCOc1ccc2c(c1)CC[C@@H]1[C@@H]2CC[C@]2(C)C(=O)/C(=N/O)C[C@@H]12 study_target="OVCAR-3 ovarian" assigned_label="label 0"

Which result was noted for this molecule in the test: COc1cc(Nc2nccc(-c3cnn4ncccc34)n2)cc(OC)c1
label 1

Which result was noted for this molecule in the test: Nc1nc(-c2ccccc2Cl)cc(-c2ccc(Cl)cc2Cl)n1
label 0

====

Documented TGI across a set of compounds
System: BT-549 breast
EXPERIMENT_DESCRIPTION: NCI tumour cell line growth inhibition, 48 h

For orientation, consider the following solved cases.
compound=O=C(O)COc1cccc2ccccc(=O)c12 reading="> 100 µM"
compound="Cc1cccc(C)c1NC(=O)/C(CC(=O)CC(c1ccccc1)c1c(O)c2ccccc2oc1=O)=N/O (stereo not given)" reading="> 100 µM"
compound=O=[N+]([O-])c1ccc(N/N=C\c2ccc(O)cc2O)nc1 reading="> 100 µM"
compound=C=CCOc1ccc2c(c1)CC[C@@H]1[C@@H]2CC[C@]2(C)C(=O)/C(=N/O)C[C@@H]12 reading="19.2 µM"

I'd like to know its TGI. The compound in question is COc1ccc2nc3c(cc2c1)C(=O)CC(C(F)(F)F)C3 (stereo not given)
> 100 µM

====

System: DU-145 prostate
EXPERIMENT_DESCRIPTION: NCI tumour cell line growth inhibition, 48 h; in the data active = GI50 below about 0.43 µM; inactive = the rest
Can you answer with just one of these options? active, inactive

The following compounds have reported results that may help.
molecule=CN(Cc1cccc(Cl)c1)c1ccc(CO)c(Cl)c1 study_target="DU-145 prostate" assigned_label=inactive
molecule=COc1cc(/C=C/C(=O)c2ccc(SC)cc2)cc(OC)c1OC study_target="DU-145 prostate" assigned_label=inactive
molecule=COc1cc(Cl)c(C)cc1NC(=O)c1cc2ccccc2cc1O study_target="DU-145 prostate" assigned_label=inactive
molecule=O=c1c(-c2nc3ccccc3[nH]2)cc2ccccc2n1Cc1cn(Cc2ccc(F)cc2)nn1 study_target="DU-145 prostate" assigned_label=active

Which result was noted for this compound in the test: O=C(Nc1ccc(-n2cc(-c3ccncc3)c(-c3ccc(Cl)c(O)c3)n2)cc1)c1ccc(Cl)c(C(F)(F)F)c1
inactive
